Would you mind telling me the reported folding stability dG unfold of each entry?
test: folding stability dG unfold from trypsin proteolysis; higher = more stable
Numbers only, in kcal/mol.

Hey, can you go through the list below and give me folding stability dG unfold for every item?
1. SAMVLRIKVEVNGETKEIEIELPPNAKIEKKDGELTIYVKNPETGKIFKFKFKKNAKIVEVEEVDPEDLSAG [r14_313_TrROS_Hall]
2. SAMPAENMTPEEAAELALAYVERFRAEVEALGGPIPADTEIVVPVTLEGPPVEIKITFINPDEVEVEVASAG [r14_501_TrMRF]
3. SAGGMTILFEADSLEEARQAVEDLLRDLGIPAIAERITVEERTFRLPAGPGTRRFVLVTIDLRLEPPSAGGS [r16_587_TrMRF]
4. SMKVIIIERPDESGVPVVIVLPEEEALELYRKLFNVPMSVEEFAEKLKELNPNVKVEVVPLEEVSEEVLLSA [r9_1085_JUSTAS]

// result
2.6
1.46
2.68
2.23

* * *

Would you mind telling me the reported folding stability dG unfold of each entry?
experiment: folding stability dG unfold from trypsin proteolysis; higher = more stable
Give bare numbers, in kcal/mol.

See these solved cases before continuing.
| sequenceInput | folding stability dG unfold [kcal/mol] |
| --- | --- |
| SMLPLLPPRRLLIEVVFPLPEDATPEQLELAERAAEALADVLEALGFKDVRVLVEPTDPGDVLILAEVEASA [r9_865_TrMRF] | 1.49 |
| SAGGSAGGSAGPEVIEIKNPKTGKTYRIVRNKDGKLLIYNEATGKVAVFKDGKIELVPAPSAGGSAGGSAGG [r17_476_TrROS_Hall] | 1.14 |
| SAGGSMQSVTSYDPNGVTYTTEFLPDEDVVTYTKTTDGTVTTTKVERLDEDGVPVPLSTSTTTLGGSAGGSA [r2_60_JUSTAS] | 0.208 |
| SAGKPGKTIKVTVPIPDSVKNAKIIVEYPNGKSKTITVPAGKNVTITFKVPGSSSVKVRVVLDDGSVIGSAG [r5_664_TrMRF] | 2.9 |
| SAGGDPPNIEVVPYRVKFGGKPIPIQVFVMPNGQTIVRIKFPNGKKGWMPADDLDELLKNPFEIERVSAGGS [r16_105_TrROS] | 1.21 |

Hey, can you go through the list below and give me folding stability dG unfold for every item?
1. SAGGSAGGSAGGSDDFVLRYRRRVRRKPKEVRLLPNGELVTGWEEEVSTFPVLTHPDDDSAGGSAGGSAGGS [r10_524_TrMRF]
2. SAGIEIDIEVDPENGFIKITAKIHNPDGNPVYEMEMWIPVDNGRIYRVDIRINPDNGKIELDIEPFPLNSAG [r5_34_TrROS]
3. SAGMSLKLEVPIDGHMIEVTVHPSPPRATAKYPEFDATAEATISEPGLINLTITDPKTGKPYPLDVTLPSAG [r14_656_JUSTAS]

// result
[0.239, 3.48, 0.621]

// query Give recorded folding stability dG unfold. SKKVTLPIYFPETGEVVTIDLDELAKALGVDPDKLTLTVVSSGKGRVYRIEVFKDGIRIEEIGDVPPELLSA [r9_819_TrMRF]
// result 2.2

* * *

assay: folding stability dG unfold from chymotrypsin proteolysis; higher = more stable
endpoint: folding stability dG unfold (kcal/mol)
Numbers only, in kcal/mol.

| sequenceInput | folding stability dG unfold (kcal/mol) |
| --- | --- |
| SAGGMSVSITVTVTPTEVRVVENPTNGVNTAFTETTVTVTVNHPSSVSPEEKAALIAAVKAANPGAASAGGS [r8_306_JUSTAS] | 1.92 |
| SALEEEVKKRAEEIAQEIKEKFPNVKEKVVEIELPLPNGTKLKATVTISRSINEKGIEYKIKIEVSEGLSAG [r14_788_JUSTAS] | 3.99 |
| SAGGSAGMRMQIQIPNDEIPPEKIEDALQEYGWNPTDVYPPDNGVSVTFEMDPGDMNKLMEAIKKLSAGGSA [r15_161_TrROS] | 0.843 |

Continue with the sequence presented below.
// query Give recorded folding stability dG unfold. SAGGSAGGSAGGMPVEVTTLETRKDPAGTTTEITLDPKTGRTIIVTKYPNGGSETTVVESAGGSAGGSAGGS [r10_1118_JUSTAS]
// result 0.504

* * *

assay: folding stability dG unfold (combined trypsin and chymotrypsin); higher = more stable
Where folding stability dG unfold equals or exceeds 2 kcal/mol, the correct label is T; where it does not, the label is F.

Consider the worked cases shown below.
| sequenceInput | classification |
| --- | --- |
| SAGGSAPWRPITITIPGSWEEIKELAKKFVNDGNIRDVEVEPVPDPGYYKVTVWVRDPNGNWYLVFSAGGSA [r15_177_TrROS] | T |
| GYTITSEVEEFEDPNSDAKYTKVTIPVVDGDPEVAREAAEEIAKERFGPGATLDIKYDPETGTVTATFTVAS [r1_273_JUSTAS] | F |
| SAGMKEIKIKDAKIEVKKKKDGKKVKRITLKDGKEIEIKEDGSIIIRNKKTGKYIKLPKNMTIEELLKKSAG [r5_348_TrROS_Hall] | F |

// query Say whether SAGGSAGGSAGAAPDGETVRITAVFVNPETQEVFVVEATINPDGELTMEVKEVFKLPEGLSAGGSAGGSAGG [r11_226_TrROS_Hall] shows folding stability dG unfold of 2 kcal/mol or more.
// result T

// query Say whether SADMVMFPMTGEFHFPGWRIKVEITLMFHFTPNGKFGPNFHPMIKIEIVPPPPPPKITEEEADKANENGSAG [r14_442_TrROS] shows folding stability dG unfold of 2 kcal/mol or more.
// result T

// query Say whether SAGGSAGGSAGGSSMKYFTRSASPDTTFTVKTPNGGVVNVTPTAAPGTYKYTFTLPGNSSAGGSAGGSAGGS [r4_360_JUSTAS] shows folding stability dG unfold of 2 kcal/mol or more.
// result F

// query Say whether SAGGETEVVETNASPAELAERVAEALAAGREVTVTLPDGTVLDAGPDLADLPADTPVRLEFTPAVAASAGGS [r16_31_JUSTAS] shows folding stability dG unfold of 2 kcal/mol or more.
// result F

* * *

assay: folding stability dG unfold from trypsin proteolysis; higher = more stable
Where folding stability dG unfold equals or exceeds 3 kcal/mol, the correct label is satisfied; where it does not, the label is not satisfied.

Consider the worked cases shown below.
| sequenceInput | classification |
| --- | --- |
| SAGGSAGGSAGPTLTLELLFRNEDGSLYAVRVRYDLDTDKVEIEVRRLPPAEPVTVTVEDSAGGSAGGSAGG [r11_657_TrROS_Hall] | not satisfied |
| SAGGSKIRIVEIQPSNGFTIKIRPKNGKKMTIPIPPDDMNDPENWERFARTLAKWFEKNGVKDIEISAGGSA [r2_249_TrROS] | not satisfied |
| SAGMNLKIEVSVTPQEFELVEKDEEGNLIKPVKQKATVVTTTTTLPDGTVTTTRSLFLDGELVATSTGSAGG [r19_44_JUSTAS] | not satisfied |
| SAGSTTRVVELPGNKRVEVEVSTVGDSLTFTITLRDEEGNPVKTLPVAVPDPSLPVEEAIAAAVAAFLASAG [r5_630_JUSTAS] | satisfied |
| SAGGSEIRVEYDPSTGELRVLIVLPDGSVILKTVRVEPIDPGIAPDGSPIGAAVSISVEIVPPGELSAGGSA [r2_195_TrMRF] | satisfied |

Okay, next one:
// query Say whether SAGGSAGGSAVSPDETVPIKIDGKEVTVTFNGSKATITFPDGTVIEGTVSTEGSKLTLDLNLSAGGSAGGSA [r18_172_JUSTAS] shows folding stability dG unfold of 3 kcal/mol or more.
// result not satisfied

* * *

assay: folding stability dG unfold (combined trypsin and chymotrypsin); higher = more stable
endpoint: folding stability dG unfold

See these solved cases before continuing.
| sequenceInput | folding stability dG unfold |
| --- | --- |
| SAGGSAGGSAGGSGNFTIDPALLEEARAEAAAAGEALETIPLKVTRPGGETKTIDIKVGSAGGSAGGSAGGS [r4_367_JUSTAS] | < -1 kcal/mol |
| SAGGSAGGSAGGMKVVFNIHRPDSDEVLTVDDMEKLKETSLEELAKKLEEENGYPVEVVLSAGGSAGGSAGG [r7_259_JUSTAS] | < -1 kcal/mol |

// query Give recorded folding stability dG unfold. SAPDNIKVDINIERNPEDGHIRVEMEIEYPDGNEVYHSAWIDPDNGKIEIDVQVPNGKQIAEETIQIKPSAG [r14_524_TrROS]
// result < -1 kcal/mol

* * *

Would you mind telling me the reported folding stability dG unfold of each entry?
test: folding stability dG unfold from trypsin proteolysis; higher = more stable
One number for each entry, in kcal/mol.

See these solved cases before continuing.
| sequenceInput | endpoint | valueUnit | measuredValue |
| --- | --- | --- | --- |
| SAMTYTLTPAGGKTITVTLNPDGSITITSTSTSSSLPLSPDAKITSVTFDAATGTITITLNSKPITIPASAG [r14_276_JUSTAS] | folding stability dG unfold | kcal/mol | 1.9 |
| SALWVIKDTIKPPNGKKRKISIAIPNDGLYVWFNGGSFPIPLKEIKKIMENFPGYQIDDIEIMPLDELKSAG [r14_336_TrROS] | folding stability dG unfold | kcal/mol | 0.798 |

Hey, can you go through the list below and give me folding stability dG unfold for every item?
1. SAGGSAGGEERVRLPITLEVPVPLAPVLLVSPDGSERLVPLPSVTLRITLELELTKEEWEKLLSSAGGSAGG [r6_119_TrMRF]
2. SAGGSAGGSAGGLGPDTPYATLSVTLTFTVRLKVRDPVTGKEYEIEYDVTLTFTFTVPASAGGSAGGSAGGS [r10_1116_TrMRF]

// result
1: 3.06; 2: 5.07
